Taken from patent US20100179143A1.

- target_under_test: PI3Kα (Homo sapiens, UniProt P42336)
- Sequence (P42336 whole entry): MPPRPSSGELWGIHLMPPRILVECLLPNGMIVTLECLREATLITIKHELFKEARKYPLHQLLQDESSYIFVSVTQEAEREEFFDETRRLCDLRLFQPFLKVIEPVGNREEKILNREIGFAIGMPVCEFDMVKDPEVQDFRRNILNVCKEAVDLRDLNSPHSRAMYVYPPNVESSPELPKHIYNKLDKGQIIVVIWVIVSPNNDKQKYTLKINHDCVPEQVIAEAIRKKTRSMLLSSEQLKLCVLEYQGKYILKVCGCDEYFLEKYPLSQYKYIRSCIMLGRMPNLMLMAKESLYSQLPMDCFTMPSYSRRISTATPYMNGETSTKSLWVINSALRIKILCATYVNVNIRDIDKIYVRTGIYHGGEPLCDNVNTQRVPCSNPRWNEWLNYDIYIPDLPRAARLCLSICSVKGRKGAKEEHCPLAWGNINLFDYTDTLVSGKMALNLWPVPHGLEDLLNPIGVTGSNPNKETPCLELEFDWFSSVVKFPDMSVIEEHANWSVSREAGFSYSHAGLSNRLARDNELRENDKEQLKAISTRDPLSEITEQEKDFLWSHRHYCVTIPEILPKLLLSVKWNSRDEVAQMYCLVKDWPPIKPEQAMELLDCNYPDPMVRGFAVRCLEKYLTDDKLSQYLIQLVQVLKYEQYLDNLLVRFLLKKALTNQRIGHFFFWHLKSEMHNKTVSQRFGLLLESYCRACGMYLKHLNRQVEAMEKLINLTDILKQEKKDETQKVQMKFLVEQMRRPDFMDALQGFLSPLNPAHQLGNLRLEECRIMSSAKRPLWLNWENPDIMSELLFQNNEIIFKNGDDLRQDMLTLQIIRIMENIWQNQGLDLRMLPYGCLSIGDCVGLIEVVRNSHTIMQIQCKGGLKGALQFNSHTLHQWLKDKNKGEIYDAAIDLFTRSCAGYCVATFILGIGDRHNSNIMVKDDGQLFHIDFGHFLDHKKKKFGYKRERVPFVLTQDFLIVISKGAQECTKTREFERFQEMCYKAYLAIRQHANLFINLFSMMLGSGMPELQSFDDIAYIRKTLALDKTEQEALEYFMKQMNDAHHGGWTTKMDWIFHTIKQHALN
- Sequence (P27986 whole entry partner): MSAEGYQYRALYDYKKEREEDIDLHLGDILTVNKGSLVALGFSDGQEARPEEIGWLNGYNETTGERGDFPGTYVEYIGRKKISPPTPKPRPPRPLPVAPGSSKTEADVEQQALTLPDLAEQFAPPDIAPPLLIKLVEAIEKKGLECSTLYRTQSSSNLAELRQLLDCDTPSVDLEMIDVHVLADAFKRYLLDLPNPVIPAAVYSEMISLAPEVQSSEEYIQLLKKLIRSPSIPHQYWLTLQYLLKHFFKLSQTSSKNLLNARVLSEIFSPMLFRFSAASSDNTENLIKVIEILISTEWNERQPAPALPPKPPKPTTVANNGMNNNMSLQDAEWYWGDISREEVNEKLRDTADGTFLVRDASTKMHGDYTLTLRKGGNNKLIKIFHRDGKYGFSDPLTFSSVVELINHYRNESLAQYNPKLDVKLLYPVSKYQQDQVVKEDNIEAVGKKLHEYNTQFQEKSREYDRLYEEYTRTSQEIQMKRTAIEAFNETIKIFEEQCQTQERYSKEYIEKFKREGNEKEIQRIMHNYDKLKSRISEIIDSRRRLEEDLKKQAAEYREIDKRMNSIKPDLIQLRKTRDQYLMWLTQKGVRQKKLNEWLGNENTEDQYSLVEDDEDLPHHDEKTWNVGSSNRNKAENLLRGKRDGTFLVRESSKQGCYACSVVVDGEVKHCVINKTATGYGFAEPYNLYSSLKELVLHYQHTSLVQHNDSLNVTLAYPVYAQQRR

molecule | target_under_test | scale_unit | IC50
OCc1ccc(-c2ccc3nccc(-c4ccncc4)c3n2)o1 [Example 1] | PI3Kα (Homo sapiens, UniProt P42336) | nM | 40
